- Test system: NDR2
- Condition Label: concentration: 1 μM,replicates: in singlicate; n = 1;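 further: KINOMEscan kinase panel screen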
Task for the reader: assign each of the following compounds its reported %Inh.
One number for each entry, in %.

A selection of reference data follows.
>>> print(df.to_string())
                                   compound  experimental_value
0  CN(C)CC(O)COc1ccc(Nc2nccc(-c3cnn4nc(N5CCOCC5)ccc34)n2)cc1 (centres unmarked) [GW767488]                   0
1  Cl.Cl.Nc1nc(-c2ccc3c(N)n[nH]c3c2)cc(N2CCCC(NC(=O)c3ccccc3)C2)n1 (centres unmarked) [GSK2286775]                   0
2  Nc1nc(Nc2ccccc2)cc(-c2ccc3c(N)n[nH]c3c2)n1 [GSK2225749]                   0
3  Cl.Oc1cc(-c2nc(-c3ccccc3)[nH]c2-c2ccncc2)ccc1Cl [SB-386023]                   0

Each compound below has a reported value. Please supply its %Inh.
1. Cl.Cl.NC[C@H](CC1CCCCC1)NC(=O)c1cc(Br)c(-c2ccnc3[nH]ccc23)s1 [GSK1581427]
2. Cc1n[nH]c2ccc(-c3cc(OC[C@@H](N)Cc4ccccc4)cnc3-c3ccoc3)cc12.O=C(O)C(F)(F)F.O=C(O)C(F)(F)F [GSK507358]
3. CN(C)CCOc1ccc(-c2cc(-c3c[nH]nc3-c3ccccn3)ccn2)cc1 [GW835314]
4. C[C@H]1Oc2cc(cnc2N)-c2c(nn(C)c2C#N)CN(C)C(=O)c2ccc(F)cc21

Result:
[82, 16, 0, 25]

---

Task for the reader: assign each of the following compounds its reported %Inh.
- Test system: PKMYT1
- Condition Label: concentration: 1 μM,replicates: in singlicate; n = 1
Answers are plain numbers, in %.

A selection of reference data follows.
>>> print(df.to_string())
                              smiles_record  experimental_value
0  Cc1ccc(-n2nc(C(C)(C)C)cc2NC(=O)Nc2ccc(OCCN3CCOCC3)c3ccccc23)cc1                  21
1  CCn1c(-c2nonc2N)nc2c(C#CC(C)(C)O)nc(OCCN)cc21.Cl.Cl                   8
2  CN(C)CCOc1ccc(-c2cc(-c3c[nH]nc3-c3ccccn3)ccn2)cc1                   0

Each compound below has a reported value. Please supply its %Inh.
1. COc1ccc(C[C@@H](CN)NC(=O)c2cc(Br)c(-c3ccnc4[nH]ccc34)s2)cc1.Cl.Cl
2. Cl.Cl.NC[C@H](Cc1ccc(C(F)(F)F)cc1)NC(=O)c1cc(Br)c(-c2ccnc3[nH]ccc23)s1
3. C[C@H]1Oc2cc(cnc2N)-c2c(nn(C)c2C#N)CN(C)C(=O)c2ccc(F)cc21
4. Cl.Cl.NC[C@H](CC1CCCCC1)NC(=O)c1cc(Br)c(-c2ccnc3[nH]ccc23)s1
5. C[C@@H]1CCN(C(=O)CC#N)C[C@@H]1N(C)c1ncnc2[nH]ccc12
6. Cc1occc1-c1nc(N)c(OC[C@@H](N)Cc2c[nH]c3ccccc23)cc1-c1cc2c(C)n[nH]c2cn1
7. Cc1cc2cn[nH]c2cc1-c1cccc2c(N)c(C(N)=O)nnc12
8. Nc1nc(Nc2ccccc2)cc(-c2ccc3c(N)n[nH]c3c2)n1

Result:
1. 0
2. 10
3. 33
4. 0
5. 20
6. 24
7. 0
8. 0

Problem: Fill: %Inh (PKMYT1) for this compound `O=C(NCCCN1CCOC1=O)c1cnc(NCc2cc(Cl)ccc2Cl)nc1NC1CCCC1`
Result: 27

---

- Test system: ACVR2A
- Condition Label: concentration: 1 μM,replicates: in singlicate; n = 1
Task for the reader: assign each of the following molecules its reported %Inh.
Give bare numbers, in %.

A selection of reference data follows.
In [3]: df
Out[3]:
                              smiles_record  experimental_value
0  Cl.Oc1cc(-c2nc(-c3ccccc3)[nH]c2-c2ccncc2)ccc1Cl                   0
1  O=C(NCCCN1CCOC1=O)c1cnc(NCc2cc(Cl)ccc2Cl)nc1NC1CCCC1                   5
2  CNC(=O)c1ccccc1Sc1ccc2c(/C=C/c3ccccn3)n[nH]c2c1                   0
3  Cc1cc(C(=O)Nc2ccc(Oc3ccc4nc(NC(=O)C5CC5)cn4n3)cc2)nn1-c1ccccc1                   2
4  CCn1c(-c2nonc2N)nc2c(C#CC(C)(C)O)nc(OCCN)cc21.Cl.Cl                   0
5  Cc1ccc(-n2nc(C(C)(C)C)cc2NC(=O)Nc2ccc(OCCN3CCOCC3)c3ccccc23)cc1                   0
6  NC(=O)c1cc(-c2ccccc2)cc2c(C3CCNCC3)c[nH]c12                   0

Let us examine a further case.
Problem: Specify %Inh for `CCN(CC)CCCCNc1ncc2cc(-c3c(Cl)cccc3Cl)c(NC(=O)NC(C)(C)C)nc2n1` and stop.
Result: 28

---

- System: TYK2(JH1domain-catalytic)
- Condition Label: concentration: 1 μM,replicates: in singlicate; n = 1
Test Readout: %Inh (%)
Give bare numbers, in %.

In [3]: df
Out[3]:
                                   molecule  test_readout  readout_unit  experimental_value
0  CNC(=O)c1ccccc1Sc1ccc2c(/C=C/c3ccccn3)n[nH]c2c1          %Inh             %                   0
1  CN(C)CC(O)COc1ccc(Nc2nccc(-c3cnn4nc(N5CCOCC5)ccc34)n2)cc1 (centres unmarked) [GW767488]          %Inh             %                  66
2  Cc1occc1-c1nc(N)c(OC[C@@H](N)Cc2c[nH]c3ccccc23)cc1-c1cc2c(C)n[nH]c2cn1 [GSK1660450]          %Inh             %                   3

Each molecule below has a reported value. Please supply its %Inh.
1. COc1ccc(C[C@@H](CN)NC(=O)c2cc(Br)c(-c3ccnc4[nH]ccc34)s2)cc1.Cl.Cl [GSK1389063]
2. Nc1nc(Nc2ccccc2)cc(-c2ccc3c(N)n[nH]c3c2)n1 [GSK2225749]

Result:
1. 82
2. 46

---

- Test system: RPS6KA4(Kin.Dom.2-C-terminal)
- Condition Label: concentration: 1 μM,replicates: in singlicate; n = 1
Test Readout: %Inh (%)
Give bare numbers, in %.

A selection of reference data follows.
>>> df
                                   molecule  test_readout  experimental_value
0  Cc1cc2cn[nH]c2cc1-c1cccc2c(N)c(C(N)=O)nnc12          %Inh                  12
1  C[C@H]1Oc2cc(cnc2N)-c2c(nn(C)c2C#N)CN(C)C(=O)c2ccc(F)cc21          %Inh                   0
2  C[C@@H](Oc1cc(-c2cnn(C3CCNCC3)c2)cnc1N)c1c(Cl)ccc(F)c1Cl          %Inh                   3
3  COc1ccc(C[C@@H](CN)NC(=O)c2cc(Br)c(-c3ccnc4[nH]ccc34)s2)cc1.Cl.Cl [GSK1389063]          %Inh                  59
4  NC(=O)c1cc(-c2ccccc2)cc2c(C3CCNCC3)c[nH]c12 [GSK301362]          %Inh                   0

Each molecule below has a reported value. Please supply its %Inh.
1. CC(C)Nc1cc(-c2ccc3c(N)n[nH]c3c2)nc(N)n1 [GSK2221681]
2. Cl.Cl.NC[C@H](Cc1ccc(C(F)(F)F)cc1)NC(=O)c1cc(Br)c(-c2ccnc3[nH]ccc23)s1 [GSK1487252]
3. Cc1n[nH]c2ccc(-c3cc(OC[C@@H](N)Cc4ccccc4)cnc3-c3ccoc3)cc12.O=C(O)C(F)(F)F.O=C(O)C(F)(F)F [GSK507358]

Result:
1. 88
2. 0
3. 0

---

Task for the reader: assign each of the following molecules its reported %Inh.
- System: CIT
- Condition Label: concentration: 1 μM,replicates: in singlicate; n = 1
Give bare numbers, in %.

>>> print(df.to_string())
                                   molecule  experimental_value
0  CCN(CC)CCCCNc1ncc2cc(-c3c(Cl)cccc3Cl)c(NC(=O)NC(C)(C)C)nc2n1                   0
1  Nc1nc(Nc2ccccc2)cc(-c2ccc3c(N)n[nH]c3c2)n1                  37

Problem: Specify %Inh for CN(C)CC(O)COc1ccc(Nc2nccc(-c3cnn4nc(N5CCOCC5)ccc34)n2)cc1 (stereo not drawn) and stop.
Result: 95.2

Source of measurements: paper PMC5540273
